These entries and their values trace back to ChEMBL document CHEMBL3112567.

target: Cytochrome P450 3A4 (Homo sapiens, UniProt P08684)
Sequence (P08684 whole entry): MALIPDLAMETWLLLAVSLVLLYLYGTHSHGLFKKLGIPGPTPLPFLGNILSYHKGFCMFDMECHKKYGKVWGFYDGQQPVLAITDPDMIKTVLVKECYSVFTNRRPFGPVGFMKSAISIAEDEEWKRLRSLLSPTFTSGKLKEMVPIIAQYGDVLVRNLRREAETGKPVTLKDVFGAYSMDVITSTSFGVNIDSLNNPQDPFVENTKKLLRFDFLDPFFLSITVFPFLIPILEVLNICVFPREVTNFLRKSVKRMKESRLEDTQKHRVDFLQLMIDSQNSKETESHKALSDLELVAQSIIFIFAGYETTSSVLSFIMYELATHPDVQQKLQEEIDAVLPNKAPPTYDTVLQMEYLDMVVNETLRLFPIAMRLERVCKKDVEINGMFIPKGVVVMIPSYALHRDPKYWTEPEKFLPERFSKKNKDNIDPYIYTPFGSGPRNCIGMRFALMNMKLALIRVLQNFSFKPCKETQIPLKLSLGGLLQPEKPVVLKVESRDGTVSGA
Here, each record is paired with measured IC50 data.

- CN1C[C@@H]2[C@H](C1)[C@H]2CN(Cc1ccc(Cl)c(F)c1)C(=O)c1cn(C)cn1: > 10 µM

*Q* API: value(readout=IC50, system=Cytochrome P450 3A4 (Homo sapiens, UniProt P08684)) for record Cn1cnc(S(=O)(=O)N2C[C@@H]3[C@H](C2)[C@@]3(CNC(=O)c2ccc(Cl)cc2Cl)c2ccccn2)c1
*A* > 30 µM

###

As a worked illustration, we turn to pIC50 data collected for Cytochrome P450 2C9 (Homo sapiens, UniProt P11712).
pIC50: −log10 of the molar value.

- CCCS(=O)(=O)N1CCC(c2ccccc2)([C@H](C)NC(=O)c2ccc(Cl)cc2Cl)CC1: < 5.00
- Cn1cnc(S(=O)(=O)N2C[C@@H]3[C@H](C2)[C@@]3(CNC(=O)c2ccc(Cl)cc2Cl)c2ccccn2)c1: < 4.52
- CCS(=O)(=O)N1CCC(CNC(=O)c2ccc(Cl)cc2Cl)(CC2CC2)CC1: < 5.00
- Cn1cnc(S(=O)(=O)N2C[C@@H]3[C@H](C2)[C@@]3(CNC(=O)c2ccccc2C(F)(F)F)CC2CC2)c1: < 4.52

Continue with the compound presented below.
*Q* Using the record for Cn1cnc(S(=O)(=O)N2C[C@@H]3[C@H](C2)[C@@]3(CNC(=O)c2ccccc2C(F)(F)F)c2ccccn2)c1 , report its pIC50.
*A* < 4.52

###

assay: AUC (0 to 6 hrs) in rat brain at 10 mg/kg, po; format: ADME, organism-based; design: time < 6 hr, dose 10 mg/kg, route oral
OBSERVED_PROPERTY: AUC(0-t) at 6 h (µM·h)
Kindly answer with a numeric value in µM·h, unit omitted.

*Q* Which measured AUC(0-t) at 6 h value corresponds to Cn1cnc(S(=O)(=O)N2C[C@@H]3[C@H](C2)[C@@]3(CNC(=O)c2ccccc2C(F)(F)F)CC2CC2)c1 ?
*A* 0.956

###

system: Plasma; experiment: Fraction unbound in human plasma; type: ADME, cell-free
Binary call on Fu with cut-off 4%: strictly below means yes (1), and equality or higher means no (0).

Some solved cases for reference:
* Cn1cnc(S(=O)(=O)N2C[C@@H]3[C@H](C2)[C@@]3(CNC(=O)c2ccccc2C(F)(F)F)CC2CC2)c1 | no (0)
* Cn1cnc(S(=O)(=O)N2C[C@@H]3[C@H](C2)[C@@]3(CNC(=O)c2ccc(Cl)c(Cl)c2)CC2CC2)c1 | yes (1)
* Cn1cnc(S(=O)(=O)N2C[C@@H]3[C@H](C2)[C@@]3(CNC(=O)c2c(Cl)cccc2Cl)CC2CC2)c1 | no (0)
* Cn1cnc(S(=O)(=O)N2C[C@@H]3[C@H](C2)[C@@]3(CNC(=O)c2cc(Cl)cc(Cl)c2)CC2CC2)c1 | yes (1)

We now examine a further compound.
*Q* For this compound, is Fu lower than 4%? Cn1cnc(S(=O)(=O)N2C[C@@H]3[C@H](C2)[C@@]3(CNC(=O)c2ccc(Cl)cc2)CC2CC2)c1
*A* yes (1)

###

target: Sodium- and chloride-dependent glycine transporter 1 (Homo sapiens, UniProt P48067); assay: Inhibition of GlyT1 (unknown origin) assessed as inhibition of [14C]glycine uptake
Sequence (P48067 whole entry): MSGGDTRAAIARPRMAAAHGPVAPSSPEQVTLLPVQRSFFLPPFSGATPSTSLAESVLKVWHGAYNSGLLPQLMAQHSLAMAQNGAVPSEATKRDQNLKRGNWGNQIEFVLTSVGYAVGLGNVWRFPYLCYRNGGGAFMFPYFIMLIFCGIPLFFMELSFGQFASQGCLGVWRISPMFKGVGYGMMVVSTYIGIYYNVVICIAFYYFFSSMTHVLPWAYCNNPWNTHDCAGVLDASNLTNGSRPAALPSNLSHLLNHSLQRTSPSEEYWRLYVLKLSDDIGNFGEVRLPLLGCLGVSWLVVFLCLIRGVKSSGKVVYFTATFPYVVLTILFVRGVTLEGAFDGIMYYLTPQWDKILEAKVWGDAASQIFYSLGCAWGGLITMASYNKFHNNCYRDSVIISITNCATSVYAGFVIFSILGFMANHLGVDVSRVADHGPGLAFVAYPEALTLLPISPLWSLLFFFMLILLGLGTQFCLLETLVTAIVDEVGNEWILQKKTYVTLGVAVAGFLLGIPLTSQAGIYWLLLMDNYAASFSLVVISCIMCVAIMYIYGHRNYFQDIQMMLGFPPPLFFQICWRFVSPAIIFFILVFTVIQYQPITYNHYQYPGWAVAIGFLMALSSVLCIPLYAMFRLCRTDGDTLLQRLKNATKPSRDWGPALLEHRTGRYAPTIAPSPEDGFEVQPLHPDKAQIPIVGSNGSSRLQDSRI
Kindly note that classification relies on IC50 with these boundaries: category 1: < 80 nM; category 2: ≥ 80 nM and < 1000 nM; category 3: ≥ 1000 nM

Worked examples follow.
- Cn1cnc(S(=O)(=O)N2C[C@@H]3[C@H](C2)[C@@]3(CNC(=O)c2ccc(Cl)cc2Cl)c2ccccn2)c1: category 2
- Cn1cnc(S(=O)(=O)N2C[C@@H]3[C@H](C2)[C@@]3(CNC(=O)c2ccccc2C(F)(F)F)CC2CC2)c1: category 1
- Cn1cnc(S(=O)(=O)N2C[C@@H]3[C@H](C2)[C@@]3(CNC(=O)c2ccccc2C(F)(F)F)c2ccccn2)c1: category 2
- CC(C)S(=O)(=O)N1C[C@@H]2[C@H](C1)[C@@]2(CNC(=O)c1ccc(Cl)cc1Cl)CC1CC1: category 3
- O=C(NC[C@]1(CC2CC2)[C@@H]2CN(S(=O)(=O)c3ccccc3)C[C@@H]21)c1ccc(Cl)cc1Cl: category 3

*Q* Pick a category. Item: O=C(NC[C@]1(CC2CC2)[C@@H]2CN(S(=O)(=O)c3ccccc3F)C[C@@H]21)c1ccc(Cl)cc1Cl
*A* category 3

*Q* Band for the recorded IC50 of Cn1cnc(S(=O)(=O)N2C[C@@H]3[C@H](C2)[C@@]3(CNC(=O)c2ccc(Cl)cc2)CC2CC2)c1 ?
*A* category 1

*Q* Kindly identify the class of CC(C)CS(=O)(=O)N1C[C@@H]2[C@H](C1)[C@@]2(CNC(=O)c1ccc(Cl)cc1Cl)CC1CC1 .
*A* category 3

*Q* Which of the defined bands does the recorded IC50 of Cn1cnc(S(=O)(=O)N2C[C@@H]3[C@H](C2)[C@@]3(CNC(=O)c2c(Cl)cccc2Cl)CC2CC2)c1 sit within?
*A* category 1

*Q* Which category does the recorded IC50 put NCC(=O)O [GLYCINE] in?
*A* category 3

*Q* State the band of O=C(NC[C@]1(CC2CC2)[C@@H]2CN(S(=O)(=O)CC3CC3)C[C@@H]21)c1ccc(Cl)cc1Cl
*A* category 2

*Q* For CCCS(=O)(=O)N1C[C@@H]2[C@H](C1)[C@@]2(CNC(=O)c1ccc(Cl)cc1Cl)CC1CC1 , which IC50 bin applies?
*A* category 2

*Q* Into which category would you place CCS(=O)(=O)N1C[C@@H]2[C@H](C1)[C@@]2(CNC(=O)c1ccc(Cl)cc1Cl)CC1CC1 ?
*A* category 3

*Q* Band of O=C(NC[C@]1(CC2CC2)[C@@H]2CN(S(=O)(=O)c3cccnc3)C[C@@H]21)c1ccc(Cl)cc1Cl ?
*A* category 2

*Q* For this compound, which bin applies? CCCCS(=O)(=O)N1C[C@@H]2[C@H](C1)[C@@]2(CNC(=O)c1ccc(Cl)cc1Cl)CC1CC1
*A* category 3

*Q* Please let me know in which category the item Cn1cnc(S(=O)(=O)N2C[C@@H]3[C@H](C2)[C@@]3(CNC(=O)c2cccc(C(F)(F)F)c2)CC2CC2)c1 belongs.
*A* category 1

*Q* // return the class label for CCCS(=O)(=O)N1CCC(c2ccccc2)([C@H](C)NC(=O)c2ccc(Cl)cc2Cl)CC1
*A* category 1

*Q* Using the reported IC50, which band applies to Cn1cnc(S(=O)(=O)N2C[C@@H]3[C@H](C2)[C@@]3(CNC(=O)c2cc(Cl)cc(Cl)c2)CC2CC2)c1 ?
*A* category 2

###

test: Clearance in rat at 0.5 mg/kg, iv; assay type: ADME, organism-based; set-up: dose 0.5 mg/kg, route intravenous; settings: in vivo
OBSERVED_PROPERTY: clearance (mL/min/kg)
Give just the numeric value; mL/min/kg need not be written.

*Q* Name the reported clearance value associated with the compound Cn1cnc(S(=O)(=O)N2C[C@@H]3[C@H](C2)[C@@]3(CNC(=O)c2ccccc2C(F)(F)F)CC2CC2)c1
*A* 31

###

Reported fraction unbound values for a set of compounds
experiment: Fraction unbound in human plasma; format: ADME, cell-free
Answer as a number with no unit attached.

*Q* For the compound Cn1cnc(S(=O)(=O)N2C[C@@H]3[C@H](C2)[C@@]3(CNC(=O)c2ccc(Cl)cc2Cl)c2ccccn2)c1 , what fraction unbound is on record?
*A* 0.14

*Q* Quick one: fraction unbound for Cn1cnc(S(=O)(=O)N2C[C@@H]3[C@H](C2)[C@@]3(CNC(=O)c2ccccc2Cl)CC2CC2)c1 ?
*A* 0.03

*Q* Name the recorded fraction unbound for Cn1cnc(S(=O)(=O)N2C[C@@H]3[C@H](C2)[C@@]3(CNC(=O)c2ccc(Cl)cc2Cl)CC2CC2)c1 .
*A* 0.05

*Q* # input compound: Cn1cnc(S(=O)(=O)N2C[C@@H]3[C@H](C2)[C@@]3(CNC(=O)c2ccccc2C(F)(F)F)c2ccccn2)c1 ; wanted: its fraction unbound
*A* 0.076

###

Target: Cytochrome P450 1A2 (Homo sapiens)
Sequence (P05177 whole entry): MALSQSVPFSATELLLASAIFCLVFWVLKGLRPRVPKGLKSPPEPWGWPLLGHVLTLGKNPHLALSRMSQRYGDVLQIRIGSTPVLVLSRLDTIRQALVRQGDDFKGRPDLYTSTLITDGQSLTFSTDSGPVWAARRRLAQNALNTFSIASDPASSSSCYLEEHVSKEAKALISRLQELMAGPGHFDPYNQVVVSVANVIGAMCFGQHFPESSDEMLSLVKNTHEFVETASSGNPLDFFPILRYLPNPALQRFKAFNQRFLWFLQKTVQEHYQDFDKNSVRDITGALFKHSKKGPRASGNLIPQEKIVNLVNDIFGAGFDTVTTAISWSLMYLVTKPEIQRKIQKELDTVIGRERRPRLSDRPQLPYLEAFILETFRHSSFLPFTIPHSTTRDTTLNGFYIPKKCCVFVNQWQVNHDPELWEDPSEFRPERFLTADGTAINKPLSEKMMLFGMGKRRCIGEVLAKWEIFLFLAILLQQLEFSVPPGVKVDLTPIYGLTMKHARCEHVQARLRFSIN
pIC50: −log10 of the molar value.
OBSERVED_PROPERTY: pIC50

*Q* For Cn1cnc(S(=O)(=O)N2C[C@@H]3[C@H](C2)[C@@]3(CNC(=O)c2ccccc2C(F)(F)F)CC2CC2)c1 , what is its reported pIC50?
*A* < 4.52
